- Assay method text: Pharmacokinetic studies in C57BL/6 mice (plasma and tissues)
- Format: in vivo, mouse
- Test settings: both sexes, C57BL/6, mouse, inhaled or intranasal, IN (60 mg/kg), plasma
Quantity kind: half-life (h)
Numbers only, in h.

Can you look up the measured half-life of COc1cc(C(=O)O[C@@H]2Cc3c(O)cc(O)cc3O[C@H]2c2cc(O)c(O)c(O)c2)c(F)c(O)c1O [Compound 1c] for me?
4.8

====

- Assay method text: Pharmacokinetic studies in C57BL/6 mice (plasma and tissues)
- Format: in vivo, mouse
- Test settings: both sexes, C57BL/6, mouse, plasma, po, 100 mg/kg, PO (100 mg/kg), plasma, read-out: F (absolute bioavailability)
- Source text: To overcome the generally poor PK profile of catechins, we developed a proprietary formulation that allows for the delivery of these drugs in high concentrations for oral (PO) or intranasal (IN) use. Our liquid formulation is based on the solubilizer and penetration enhancer (2-hydroxypropyl)-β-cyclodextrin (HP-β-CD), PEG-400, and water. […] We analyzed the concentration of the drug in several tissues, including the brain, lungs, liver, and plasma. […]
Quantity kind: bioavailability (%)
Answers are plain numbers, in %.

# query: bioavailability of entry O=C(O[C@@H]1Cc2c(O)cc(O)cc2O[C@@H]1c1cc(O)c(O)c(O)c1)c1cc(O)c(O)c(O)c1 [EGCG, epigallocatechin gallate, reference compound]
2

====

- Subject of test: human DYRK1B isoform p65 (GST fusion) (Homo sapiens, UniProt Q9Y463)
- Sequence (Q9Y463 1-589 isoform Q9Y463-2): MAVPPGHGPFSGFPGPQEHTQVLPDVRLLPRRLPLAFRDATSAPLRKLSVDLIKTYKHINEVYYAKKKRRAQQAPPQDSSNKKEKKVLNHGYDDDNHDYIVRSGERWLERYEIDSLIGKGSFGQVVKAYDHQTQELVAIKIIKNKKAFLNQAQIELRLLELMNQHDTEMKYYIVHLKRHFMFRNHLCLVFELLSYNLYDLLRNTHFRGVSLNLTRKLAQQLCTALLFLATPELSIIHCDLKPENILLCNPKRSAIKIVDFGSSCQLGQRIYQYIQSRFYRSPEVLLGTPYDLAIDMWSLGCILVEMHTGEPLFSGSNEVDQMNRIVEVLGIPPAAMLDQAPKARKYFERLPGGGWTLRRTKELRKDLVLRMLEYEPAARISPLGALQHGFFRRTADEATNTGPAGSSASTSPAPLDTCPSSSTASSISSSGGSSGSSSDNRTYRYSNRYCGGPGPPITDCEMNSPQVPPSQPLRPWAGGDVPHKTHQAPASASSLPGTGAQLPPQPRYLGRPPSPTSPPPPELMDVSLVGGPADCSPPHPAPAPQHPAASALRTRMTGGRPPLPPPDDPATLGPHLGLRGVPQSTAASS
- Assay method text: ELISA-based non-radioactive kinase assay, DYRK1B
- Test settings: 30 ng GST-DYRK1B, 60 min reaction
Quantity kind: IC50
Could you give the number and then its unit, please?

Solved entries (count: 2):
1) O=C(O[C@@H]1Cc2c(O)cc(O)cc2O[C@H]1c1cc(O)c(O)c(O)c1)c1c(F)c(O)c(O)c(O)c1F ... 45 nM
2) O=C(O[C@@H]1Cc2c(O)cc(O)cc2O[C@H]1c1cc(O)c(O)c(O)c1)c1cc(O)c(O)c(O)c1F ... 42 nM

Turning to the following molecule.
What value of measured IC50 is listed for COc1cc(C(=O)O[C@@H]2Cc3c(O)cc(O)cc3O[C@H]2c2cc(O)c(O)c(O)c2)c(F)c(O)c1O ?
79 nM

====

Give measured log10(IC50) for each item. Keep answers brief.
- Subject of test: 6xHis-tagged rat-truncated DYRK1A (residues 1-497) (Rattus norvegicus, UniProt Q63470)
- Construct: 6xHis-tagged rat-truncated DYRK1A (residues 1-497); 6xHis; made in house
- Assay method text: ELISA-based non-radioactive kinase assay, DYRK1A
- Type: biochemical
- Test settings: read-out: DYRK1A IC50
Reminder: these figures are log10 of reported IC50, in nM before transformation.

1. COc1c(O)c(O)c(F)c(C(=O)O[C@@H]2Cc3c(O)cc(O)cc3O[C@H]2c2cc(O)c(O)c(O)c2)c1F ... 2.10
2. O=C(O[C@@H]1Cc2c(O)cc(O)cc2O[C@H]1c1cc(O)c(O)c(O)c1)c1c(F)c(O)c(O)c(O)c1F ... 1.45
3. CC(C)Oc1c(O)c(O)c(F)c(C(=O)O[C@@H]2Cc3c(O)cc(O)cc3O[C@H]2c2cc(O)c(O)c(O)c2)c1F ... 2.55
4. COc1c(O)c(O)cc(C(=O)O[C@@H]2Cc3c(O)cc(O)cc3O[C@H]2c2cc(O)c(O)c(O)c2)c1F ... 2.18
5. COc1cc(C(=O)O[C@@H]2Cc3c(O)cc(O)cc3O[C@H]2c2cc(O)c(O)c(O)c2)c(F)c(O)c1O ... 1.86

# map each compound to its log10(IC50)
1. O=C(O[C@@H]1Cc2c(O)cc(O)cc2O[C@H]1c1cc(O)c(O)c(O)c1)c1cc(OC(F)F)c(O)c(O)c1F
2. O=C(O[C@@H]1Cc2c(O)cc(O)cc2O[C@H]1c1cc(O)c(O)c(O)c1)c1cc(O)c(O)c(O)c1F
3. COc1cc(C(=O)OC2Cc3c(O)cc(O)cc3OC2c2cc(O)c(O)c(O)c2)cc(O)c1O (stereo not drawn) [GCG-3”OMe, reference compound]

[2.13, 1.54, 2.31]

Query (compound): O=C(O[C@@H]1Cc2c(O)cc(O)cc2O[C@H]1c1cc(O)c(O)c(O)c1)c1cc(O)c(O)c(OC(F)F)c1 ; field requested: log10(IC50)
2.40

Values compiled from paper PMC10058583.
